# system under test: human KCNQ2 (Homo sapiens, UniProt O43526)
# Construct: expressed in transfected cells
# experimental protocol: 86Rb flux in KCNQ2 expressing cells
# Type: cell-based
# particulars: KCNQ2 opening; Max effect determined in % of the effect of 30 mM KCl
property label: Emax (%)

[
  {
    "molecule": "CC(C)c1cc(C(=O)NCc2ccc3[nH]c(C(F)(F)F)cc3c2)on1 [Compound 67]",
    "unit info": "%",
    "Emax": 5.3
  }
]

I = Cc1cc2cc(CNC(=O)c3ccc(C)s3)ccc2[nH]1 [Compound 24]
II = Cc1cc(C(=O)NCc2ccc3[nH]c(C(F)(F)F)cc3c2)on1 [Compound 65]
III = O=C(NCc1ccc2[nH]c(C(F)(F)F)cc2c1)c1ccc(C(F)(F)F)nc1 [Compound C3, reference compound]
IV = Cc1cc2cc(CNC(=O)c3cc(C(C)C)no3)ccc2[nH]1 [Compound 34]
query: Arrange these 4 molecules in increasing order of Emax. Show the ranking through the labels, in the order asked for.
result: IV, I, II, III
(IV: 1%, I: 5%, II: 8.1%, III: 46%)

----------
# system under test: human α7 receptor (Homo sapiens)
# experimental protocol: α7 NNR flux assay (FDSS Ca assay)
# particulars: positive allosteric modulation; rat GH4C1 cell line stably expressing human α7; acetylcholine 20 μM; % modulation relative to PNU-120596 set to 100%
pEC50: −log10 of the molar value.
property label: pEC50

Here's what some known entries look like.
[
  {
    "molecule": "Cc1cc(C(=O)NCc2cc3cc[nH]c3cc2C)on1 [Compound 39]",
    "property label": "pEC50",
    "measured": 5.04
  },
  {
    "molecule": "Cc1cc(C(=O)NCc2ccc3[nH]c(CC(F)(F)F)cc3c2)on1 [Compound 108]",
    "property label": "pEC50",
    "measured": 5.11
  },
  {
    "molecule": "Cc1cc2cc(CNC(=O)c3ccn(C)c3)ccc2[nH]1 [Compound 37]",
    "property label": "pEC50",
    "measured": 5.01
  }
]

1 = Cc1cc2cc(CNC(=O)c3coc(C)n3)ccc2[nH]1 [Compound 76]
2 = Cc1cc(C(=O)NCc2ccc3[nH]c(C)cc3c2)on1 [Compound 28]
query: Which record would sort first by descending pEC50, 1 or 2 ? Please indicate the selected item by its label.
result: 2
(2: 5.53, 1: 5.09)

----------
# system under test: human α7 receptor (Homo sapiens, UniProt P36544)
# Sequence (P36544 23-502): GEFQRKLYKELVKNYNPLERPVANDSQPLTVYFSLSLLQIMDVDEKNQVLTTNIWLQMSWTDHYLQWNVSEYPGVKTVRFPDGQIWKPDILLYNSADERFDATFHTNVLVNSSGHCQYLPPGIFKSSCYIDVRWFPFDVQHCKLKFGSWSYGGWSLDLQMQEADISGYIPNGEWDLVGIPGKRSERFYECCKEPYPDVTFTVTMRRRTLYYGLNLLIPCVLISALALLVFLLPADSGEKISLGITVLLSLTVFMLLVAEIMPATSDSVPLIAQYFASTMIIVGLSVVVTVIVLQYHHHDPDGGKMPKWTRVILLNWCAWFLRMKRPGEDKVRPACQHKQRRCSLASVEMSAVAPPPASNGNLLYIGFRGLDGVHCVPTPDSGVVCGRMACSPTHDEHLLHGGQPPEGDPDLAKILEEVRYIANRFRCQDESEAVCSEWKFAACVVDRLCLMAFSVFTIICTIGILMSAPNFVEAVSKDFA
# experimental protocol: α7 NNR flux assay (FDSS Ca assay)
# particulars: positive allosteric modulation; rat GH4C1 cell line stably expressing human α7; acetylcholine 20 μM; % modulation relative to PNU-120596 set to 100%
property label: EC50 (µM)

Below, each entry is followed by its recorded EC50 result.
[
  {
    "compound": "Cc1cc2cc([C@@H](C)NC(=O)c3cnn(C)c3)ccc2[nH]1",
    "system under test": "human α7 receptor (Homo sapiens, UniProt P36544)",
    "EC50 [µM]": 6.1
  },
  {
    "compound": "Cc1cc2cc(C(C)NC(=O)c3oncc3C)ccc2[nH]1 (racemic)",
    "system under test": "human α7 receptor (Homo sapiens, UniProt P36544)",
    "EC50 [µM]": 11
  },
  {
    "compound": "Cc1cc2cc(CNC(=O)c3cscn3)ccc2[nH]1",
    "system under test": "human α7 receptor (Homo sapiens, UniProt P36544)",
    "EC50 [µM]": 4.4
  },
  {
    "compound": "Cc1cc(C(=O)NCc2cc(F)c3[nH]c(C)cc3c2)on1",
    "system under test": "human α7 receptor (Homo sapiens, UniProt P36544)",
    "EC50 [µM]": 3.1
  },
  {
    "compound": "Cc1cc2cc(CNC(=O)c3csc(C)n3)ccc2[nH]1",
    "system under test": "human α7 receptor (Homo sapiens, UniProt P36544)",
    "EC50 [µM]": 4.7
  },
  {
    "compound": "COCc1cc(C(=O)NCc2ccc3[nH]c(C)cc3c2)on1",
    "system under test": "human α7 receptor (Homo sapiens, UniProt P36544)",
    "EC50 [µM]": 3.5
  },
  {
    "compound": "CC(C)c1cc(C(=O)NCc2ccc3[nH]c(C(F)(F)F)cc3c2)on1",
    "system under test": "human α7 receptor (Homo sapiens, UniProt P36544)",
    "EC50 [µM]": 6.1
  },
  {
    "compound": "Cc1cc(C(=O)NCc2cc(C)c3[nH]ccc3c2)on1",
    "system under test": "human α7 receptor (Homo sapiens, UniProt P36544)",
    "EC50 [µM]": 7.1
  }
]

P = Cc1cc(C(=O)NCc2ccc3c(ccn3C(F)F)c2)on1
Q = [2H]C([2H])([2H])c1cc2cc(CNC(=O)c3cc(CC(F)(F)F)no3)ccc2[nH]1
R = Cc1cc(C(=O)NCc2ccc3[nH]cc(C)c3c2)on1
S = CCc1cc(C(=O)NCc2ccc3[nH]c(C)cc3c2)no1
query: Descending sort on EC50 required. Output the labels ranked as instructed.
result: R, P, S, Q

a = Cc1cc(C(=O)NCc2ccc3c(c2)cc(C)n3C(F)(F)F)on1
b = Cc1cc2cc(CNC(=O)c3nccs3)ccc2[nH]1
c = Cc1cc(C(=O)N[C@H](C)c2cc3cc[nH]c3c(C)c2F)on1
d = Cc1ncc(C(=O)NCc2ccc3[nH]c(C(F)(F)F)cc3c2)s1
query: Hey, quick one: sort these by EC50, low to high? Dear reader, please state the labels in the requested order.
result: c, b, a, d
(c: 0.33 µM, b: 3.3 µM, a: 6 µM, d: 8.8 µM)

----------
# system under test: UniProtKB P36544
# experimental protocol: α7 NNR flux assay (FDSS Ca assay)
# particulars: positive allosteric modulation; rat GH4C1 cell line stably expressing human α7; acetylcholine 20 μM; % modulation relative to PNU-120596 set to 100%
# Procedure: In this version of the assay, the human α7 receptor is stably expressed in the rat GH4C1 cell line. The assay was used to identify positive allosteric modulators (PAMs) of the α7 receptor. Activation of the channel was measured by loading cells with the calcium-sensitive fluorescent dye Calcium-4 (Assay kit from Molecular Devices), and then measuring real-time changes in fluorescence upon treatment with test compounds. […]
pEC50: −log10 of the molar value.
property label: pEC50

// below: answered compounds
[
  {
    "compound": "COCCn1cc(C(=O)N[C@H](C)c2ccc3[nH]c(C)cc3c2)cn1",
    "property label": "pEC50",
    "measured": 5.46
  },
  {
    "compound": "Cc1[nH]c2ccc(CNC(=O)c3cnn(CC(F)(F)F)c3)cc2c1C",
    "property label": "pEC50",
    "measured": 5.54
  }
]

I = Cc1cc(C(=O)N[C@H](C)c2cc(F)c3[nH]c(C)cc3c2)on1
II = Cc1cc(C(=O)NCc2ccc3[nH]c(C)cc3c2)sn1
III = Cc1cc2cc(CNC(=O)c3ocnc3C)ccc2[nH]1
IV = Cc1cc2cc(CNC(=O)c3cc(C(C)(C)C)on3)ccc2[nH]1
query: Please list the entries, largest pEC50 first. Please list each label once, in the requested order.
result: II, I, IV, III

1 = COc1cc(C(=O)NC(C)c2ccc3[nH]c(C)cc3c2)on1 (racemic)
2 = [2H]C([2H])([2H])c1cc2cc(CNC(=O)c3cnn(CC(F)(F)F)c3)ccc2[nH]1
query: Quick check, higher pEC50 between 1 and 2 ? In your reply, give the label of the chosen option.
result: 2

I = Cc1cc2cc(CNC(=O)c3ccn(CCF)n3)ccc2[nH]1
II = Cc1cc(C(=O)NCc2ccc3[nH]c(C(F)(F)F)cc3c2)on1
query: Select the item with the higher value of pEC50 from the options I and II listed. Label of pick, please.
result: II

A = Cc1cc2cc(CNC(=O)c3cnc(C)o3)ccc2[nH]1
B = Cc1cc2cc(CNC(=O)c3cccn3C)ccc2[nH]1
query: Which of the two gives a bigger number for pEC50: A or B ? Your answer should be the label attached to the chosen record.
result: B

1 = Cn1c(C(F)(F)F)cc2cc(CNC(=O)c3cnn(CC(F)(F)F)c3)ccc21
2 = O=C(NCc1ccc2[nH]c(C(F)(F)F)cc2c1)c1cnn(CC(F)(F)F)c1
3 = Cc1cc2cc(CNC(=O)c3sccc3C)ccc2[nH]1
4 = Cc1cc2cc(CNC(=O)c3ccc(C)s3)ccc2[nH]1
query: Sort (4 compounds) by pEC50: min first. Order the labels as requested and give them as your answer.
result: 1, 2, 3, 4

A = Cc1cc(C(=O)NC(C)c2ccc3[nH]ccc3c2)on1 (stereo not shown)
B = Cc1cc2cc(CNC(=O)c3cnc(C)s3)ccc2[nH]1
query: Please tell me which of the two, A or B , has the higher reported pEC50 value. Your choice should be expressed through its label.
result: B
